Parameter Beating below threshold, number of observations/total well numbers: see the listing below.
System: hiPSC-CMs (iCell-Cardiomyocytes^2)
Details: 3 µM, 72h
MEASURE: Beating below threshold, number of observations/total well numbers

1. N=C(N)c1ccc(OCCCCCOc2ccc(C(=N)N)cc2)cc1 [Pentamidine]
0/6
2. CC(C)(Sc1cc(C(C)(C)C)c(O)c(C(C)(C)C)c1)Sc1cc(C(C)(C)C)c(O)c(C(C)(C)C)c1 [Probucol]
0/5
3. C#Cc1cccc(Nc2ncnc3cc(OCCOC)c(OCCOC)cc23)c1 [Erlotinib]
0/5
4. COc1nc(N)nc2c1ncn2[C@@H]1O[C@H](COP(=O)(N[C@@H](C)C(=O)OCC(C)(C)C)Oc2cccc3ccccc23)[C@@H](O)[C@@]1(C)O (stereo partly drawn) [BMS-986094]
0/5
5. COc1cccc2c1C(=O)c1c(O)c3c(c(O)c1C2=O)C[C@@](O)(C(=O)CO)C[C@@H]3O[C@H]1C[C@H](N)[C@H](O)[C@H](C)O1 [Doxorubicin]
0/5
6. COc1cc2c(Nc3ccc(Br)cc3F)ncnc2cc1OCC1CCN(C)CC1 [Vandetanib]
0/5

----------
Parameter BR (beating rate), % change from baseline: see the listing below.
Test system: hiPSC-CMs (iCell-Cardiomyocytes^2)
Conditions: 1 µM, 24h
MEASURE: BR (beating rate), % change from baseline (%)

1. CC(C)(Sc1cc(C(C)(C)C)c(O)c(C(C)(C)C)c1)Sc1cc(C(C)(C)C)c(O)c(C(C)(C)C)c1
6
2. N=C(N)c1ccc(OCCCCCOc2ccc(C(=N)N)cc2)cc1
-7
3. COc1nc(N)nc2c1ncn2[C@@H]1O[C@H](COP(=O)(N[C@@H](C)C(=O)OCC(C)(C)C)Oc2cccc3ccccc23)[C@@H](O)[C@@]1(C)O (stereo partly drawn)
17
4. CCN(CC)CCNC(=O)c1c(C)[nH]c(/C=C2\C(=O)Nc3ccc(F)cc32)c1C
-67
5. COc1cc2c(Nc3ccc(Br)cc3F)ncnc2cc1OCC1CCN(C)CC1
-59
6. CC1(C)S[C@@H]2[C@H](NC(=O)[C@H](N)c3ccc(O)cc3)C(=O)N2[C@H]1C(=O)O
16
7. COc1cccc2c1C(=O)c1c(O)c3c(c(O)c1C2=O)C[C@@](O)(C(=O)CO)C[C@@H]3O[C@H]1C[C@H](N)[C@H](O)[C@H](C)O1
68
8. O=C(O)COCCN1CCN(C(c2ccccc2)c2ccc(Cl)cc2)CC1 (stereo not drawn)
1
9. C[C@H](CS)C(=O)N1CCC[C@H]1C(=O)O
1

----------
Tested on: hiPSC-CMs (iCell-Cardiomyocytes^2)
Settings: 3 µM; 48h
Method: Cells were seeded according to the instructions of the cell provider, in fibronectin-coated 48-well MEA plates (Axion Cytoview Plates, M768-tMEA-48B) at a density suited to form a monolayer (i.e., 50 K/well) and maintained in culture in a stage incubator (37°C, 5% CO2). […] The potential presence of various arrhythmic events was evaluated and noted during the data analysis. […]
Catalogue of Cessation of beating, number of observations/total well numbers values
MEASURE: Cessation of beating, number of observations/total well numbers

1) COc1cccc2c1C(=O)c1c(O)c3c(c(O)c1C2=O)C[C@@](O)(C(=O)CO)C[C@@H]3O[C@H]1C[C@H](N)[C@H](O)[C@H](C)O1
5/5
2) N=C(N)c1ccc(OCCCCCOc2ccc(C(=N)N)cc2)cc1
0/6
3) CC(C)(Sc1cc(C(C)(C)C)c(O)c(C(C)(C)C)c1)Sc1cc(C(C)(C)C)c(O)c(C(C)(C)C)c1
0/5
4) COc1nc(N)nc2c1ncn2[C@@H]1O[C@H](COP(=O)(N[C@@H](C)C(=O)OCC(C)(C)C)Oc2cccc3ccccc23)[C@@H](O)[C@@]1(C)O (stereo partly drawn)
0/5
5) COc1cc2c(Nc3ccc(Br)cc3F)ncnc2cc1OCC1CCN(C)CC1
4/5
6) C#Cc1cccc(Nc2ncnc3cc(OCCOC)c(OCCOC)cc23)c1
0/5

----------
Flat T-wave-like, number of observations/total well numbers for assorted molecules
Tested on: hiPSC-CMs (iCell-Cardiomyocytes^2)
Conditions: 0.1 µM, 96h
MEASURE: Flat T-wave-like, number of observations/total well numbers

1. Cc1cn(-c2cc(NC(=O)c3ccc(C)c(Nc4nccc(-c5cccnc5)n4)c3)cc(C(F)(F)F)c2)cn1
0/5
2. COc1cc2c(Nc3ccc(Br)cc3F)ncnc2cc1OCC1CCN(C)CC1
0/5
3. COc1cccc2c1C(=O)c1c(O)c3c(c(O)c1C2=O)C[C@@](O)(C(=O)CO)C[C@@H]3O[C@H]1C[C@H](N)[C@H](O)[C@H](C)O1
3/5
4. N=C(N)c1ccc(OCCCCCOc2ccc(C(=N)N)cc2)cc1
0/6

----------
Test system: hiPSC-CMs (iCell-Cardiomyocytes^2)
Conditions: 3 µM; 24h
Description: Cells were seeded according to the instructions of the cell provider, in fibronectin-coated 48-well MEA plates (Axion Cytoview Plates, M768-tMEA-48B) at a density suited to form a monolayer (i.e., 50 K/well) and maintained in culture in a stage incubator (37°C, 5% CO2). […] The potential presence of various arrhythmic events was evaluated and noted during the data analysis. […]
Rule: FPDc (field-potential duration corrected by beat-rate), % change from baseline below 10% gives Satisfied. Equal to or above 10% gives Not satisfied.

1. C#Cc1cccc(Nc2ncnc3cc(OCCOC)c(OCCOC)cc23)c1
Satisfied
2. COc1cccc2c1C(=O)c1c(O)c3c(c(O)c1C2=O)C[C@@](O)(C(=O)CO)C[C@@H]3O[C@H]1C[C@H](N)[C@H](O)[C@H](C)O1
Satisfied
3. N=C(N)c1ccc(OCCCCCOc2ccc(C(=N)N)cc2)cc1
Not satisfied
4. COc1nc(N)nc2c1ncn2[C@@H]1O[C@H](COP(=O)(N[C@@H](C)C(=O)OCC(C)(C)C)Oc2cccc3ccccc23)[C@@H](O)[C@@]1(C)O (some centres unmarked)
Satisfied
5. O=C(O)COCCN1CCN(C(c2ccccc2)c2ccc(Cl)cc2)CC1 (centres unmarked)
Not satisfied
6. CC(C)(Sc1cc(C(C)(C)C)c(O)c(C(C)(C)C)c1)Sc1cc(C(C)(C)C)c(O)c(C(C)(C)C)c1
Not satisfied
7. C[C@H](CS)C(=O)N1CCC[C@H]1C(=O)O
Satisfied
8. CC1(C)S[C@@H]2[C@H](NC(=O)[C@H](N)c3ccc(O)cc3)C(=O)N2[C@H]1C(=O)O
Satisfied

----------
Tested on: hiPSC-CMs (iCell-Cardiomyocytes^2)
Test: MEA impedance (cytotoxicity readout) in hiPSC-CMs
Settings: 1 µM, 24h
MEASURE: Imp (impedance), % change from baseline (%)

1) COc1cc2c(Nc3ccc(Br)cc3F)ncnc2cc1OCC1CCN(C)CC1 [Vandetanib]
-11
2) CCN(CC)CCNC(=O)c1c(C)[nH]c(/C=C2\C(=O)Nc3ccc(F)cc32)c1C [Sunitinib]
-9
3) Cc1cn(-c2cc(NC(=O)c3ccc(C)c(Nc4nccc(-c5cccnc5)n4)c3)cc(C(F)(F)F)c2)cn1 [Nilotinib]
-8
4) CC(C)(Sc1cc(C(C)(C)C)c(O)c(C(C)(C)C)c1)Sc1cc(C(C)(C)C)c(O)c(C(C)(C)C)c1 [Probucol]
-6
5) O=C(O)COCCN1CCN(C(c2ccccc2)c2ccc(Cl)cc2)CC1 (centres unmarked) [Cetirizine]
-7
6) COc1nc(N)nc2c1ncn2[C@@H]1O[C@H](COP(=O)(N[C@@H](C)C(=O)OCC(C)(C)C)Oc2cccc3ccccc23)[C@@H](O)[C@@]1(C)O (some centres unmarked) [BMS-986094]
-1
7) C[C@H](CS)C(=O)N1CCC[C@H]1C(=O)O [Captopril]
-7
8) CC1(C)S[C@@H]2[C@H](NC(=O)[C@H](N)c3ccc(O)cc3)C(=O)N2[C@H]1C(=O)O [Amoxicillin]
9

----------
Test system: hiPSC-CMs (iCell-Cardiomyocytes^2)
Conditions: 3 µM, 72h
Lab note: anything with FPDc (field-potential duration corrected by beat-rate), % change from baseline below 8% is marked yes (1); values at 8% or higher are marked no (0).

1) CC(C)(Sc1cc(C(C)(C)C)c(O)c(C(C)(C)C)c1)Sc1cc(C(C)(C)C)c(O)c(C(C)(C)C)c1
yes (1)
2) O=C(O)COCCN1CCN(C(c2ccccc2)c2ccc(Cl)cc2)CC1 (stereo not drawn)
no (0)
3) CC1(C)S[C@@H]2[C@H](NC(=O)[C@H](N)c3ccc(O)cc3)C(=O)N2[C@H]1C(=O)O
no (0)
4) N=C(N)c1ccc(OCCCCCOc2ccc(C(=N)N)cc2)cc1
no (0)
5) C#Cc1cccc(Nc2ncnc3cc(OCCOC)c(OCCOC)cc23)c1
yes (1)
6) C[C@H](CS)C(=O)N1CCC[C@H]1C(=O)O
no (0)
